System: A549-ACE2
Experiment: drug-induced phospholipidosis relative to tamoxifen; higher = more phospholipidosis
Details: 3.33333 µM; 24 h
metric_name: drug-induced phospholipidosis (%)
Dear colleague, please return just the value in %, with no unit written.

>  <compound>
O=C(OCC(O)CO)c1ccccc1Nc1ccnc2cc(Cl)ccc12 (centres undefined) [glafenine]

>  <drug-induced phospholipidosis [%]>
2

$$$$

Enquiry: Record request: drug-induced phospholipidosis value, item CN1[C@@H]2CC[C@H]1C[C@@H](OC(c1ccccc1)c1ccccc1)C2 [benztropine-mesylate]
Return: 12.3

Enquiry: Fill in: drug-induced phospholipidosis of CC1(C)CC[C@]2(C(=O)O)CC[C@]3(C)[C@H](C(=O)C=C4[C@@]5(C)C=C(C#N)C(=O)C(C)(C)[C@@H]5CC[C@]43C)[C@@H]2C1 [bardoxolone] is ___
Return: 7.86

Enquiry: Data request, read-out drug-induced phospholipidosis, for CCN(CC)CCCCN1c2ccccc2Oc2ccc(Cl)cc21 [10-DEBC]
Return: 47.7
